# system_name: T1, human CD3 Gamma/Epsilon Fc fusion protein (human, UniProt P09693 23-116; P07766 23-126)
# T1 construct: Construct limits and Fc are not described; also called Gamma-Epsilon Fc (KnH)
# assay_procedure: Octet (bio-layer interferometry), bivalent kdis; antigen printed 'Human δ/γ - Fc', taken as the Gamma/Epsilon Fc that paragraph 95 names for FIG. 8

binder | unit_name | koff
284A10 chimeric rabbit/human IgG antibody (antibody, V domains shown) VH: QSLEESGGRLVTPGTPLTLTCTVSGFTISTNAMSWVRQVPGKGLEWIGVITGRDITYYASWAKGRFTISKTSSTTVDLKMTSLTAEDSATYFCARDGGSSAITSNNIWGPGTLVTVSS VL: DVVMTQTPPSVSAAVGGTVTIKCQASESISSWLAWYQQKPGQPPKLLIYEASKLASGVPSRFSGSGSGTEFTLTISDLECADAATYYCQGYFYFISRTYVNSFGGGTEVEFKR | s⁻¹ | 0.0013

Reference source for all entries: patent US20200157217A1
